Form field: pIC50 (one value per entry).
tested on: murine splenocytes (Balb/c and C57B1/6); assay: Two-way mixed lymphocyte reaction (MLR) assay; details: read-out: two-way mixed lymphocyte reaction (MLR) suppression MLR, IC50; Balb/c + C57B1/6 splenocytes, 96 h, [3H]thymidine;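 also: proliferation read as tritiated thymidine incorporation into newly made DNA after an overnight pulse, expressed as percent of control activity, IC50 interpolated per compound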
Numbered stars: 1 amine (or outer) side, 2 acyl side, 3 side chain; on linkers, the order of the positions; unused ones are H or OH. Bridge positions count the residues as written; N and C are the ends. Square brackets hold non-standard residues; d marks the D form. Peptide text beside a SMILES is read from it. * marks the point of attachment. X1 = CC[C@H](C)[C@@H](N[*:1])[C@@H](O)CC(=O)O[C@H](C(=O)[C@H](C)C(=O)[*:2])C(C)C; NMeY = CN[C@@H](Cc1ccc(O)cc1)C(=O)O; dNMeL = CN[C@H](CC(C)C)C(=O)O; Isobutyryl = CC(C)C(=O)*
Here pIC50 is given on a logarithmic scale as minus log10 of the concentration in mol/L.

CC[C@H](C)[C@H]1NC(=O)[C@@H](NC(=O)[C@@H](CC(C)C)N(C)C(=O)[C@@H](N)CC(C)C)[C@@H](C)OC(=O)[C@H](Cc2ccc(OC)cc2)N(C)C(=O)[C@@H]2CCCN2C(=O)[C@H](CC(C)C)NC(=O)[C@@H](C)C(=O)[C@H](C(C)C)OC(=O)C[C@@H]1O [Compound 27, N-(L-Leu)Didemnin A] (H-L[dNMeL]T[X1]LP[NMeY](Me); ester 3-C)
9.13

Tell me the measured pIC50 of CC[C@H](C)[C@H]1NC(=O)[C@@H](NC(=O)[C@@H](CC(C)C)N(C)C(=O)[C@@H]2CCCN2C(=O)C(C)C)[C@@H](C)OC(=O)[C@H](Cc2ccc(OC)cc2)N(C)C(=O)[C@@H]2CCCN2C(=O)[C@H](CC(C)C)NC(=O)[C@@H](C)C(=O)[C@H](C(C)C)OC(=O)C[C@@H]1O [Compound 33, [Isobutyryl^9]Didemnin B] (Isobutyryl-P[dNMeL]T[X1]LP[NMeY](Me); ester 3-C) , please.
10.43
